PROTOCOL SUMMARY: Pharmacokinetic study in beagles (Test Example 5), intravenous drip and intragastric administration
Assay type: in vivo
STUDY CONDITIONS: beagle, dog, plasma, po, Compound 5 2.7 mg/kg p.o., molecule detected Compound 5, mean value
Method: 1.1.1. Experimental Animals: Beagles, Non-Naïve, Sourced from the Animal Repository of Medicilon: 999M-004. […] The compounds of the intravenous administration group were administered via an intravenous drip over 1 h. […] Plasma samples were separated and cryopreserved at −70° C., and the levels of related compounds in vivo were determined by LC-MS/MS. […]
RECORDED ENDPOINT: Cmax (ng/mL)

# COMPOUND, RECORDED ENDPOINT, QUANTITATIVE READOUT
measured = [
    ("Cc1ccccc1C(=O)Nc1ccc(C(=O)N2CCCC(OCOP(=O)(O)OCC[N+](C)(C)C)c3cc(Cl)ccc32)c(C)c1 (stereo not shown) [Compound 5]", "Cmax", 61.5),
]

---

PROTOCOL SUMMARY: Pharmacokinetic study in beagles (Test Example 5), intravenous drip and intragastric administration
Type: in vivo
STUDY CONDITIONS: beagle, dog, plasma, po, Compound 5 2.7 mg/kg p.o., molecule detected Compound 5, mean value

# COMPOUND, Tmax [min]
rows = [
    ("Cc1ccccc1C(=O)Nc1ccc(C(=O)N2CCCC(OCOP(=O)(O)OCC[N+](C)(C)C)c3cc(Cl)ccc32)c(C)c1 (stereo not shown)", 30),
]

---

PROTOCOL SUMMARY: Pharmacokinetic study in rats (Test Example 3), intravenous injection
Assay type: in vivo
STUDY CONDITIONS: both sexes, Sprague-Dawley, rat, plasma, iv; SD rats; Compound M i.v. 3.91 mg/kg; molecule detected Compound M; mean value

# COMPOUND, UNITS SYMBOL, half-life
rows = [
    ("Cc1ccccc1C(=O)Nc1ccc(C(=O)N2CCCC(OC(=O)[C@@H](N)C(C)C)c3cc(Cl)ccc32)c(C)c1 (stereo partly shown)", "h", 1.17),
]

---

PROTOCOL SUMMARY: Pharmacokinetic study in dogs (Test Example 1), intragastric administration
Assay type: in vivo
STUDY CONDITIONS: beagle, dog, plasma; beagles; Compound 5 administered PO 4.3 mg/kg; molecule detected Compound 5; mean value

# COMPOUND, Cmax
data = [
    ("Cc1ccccc1C(=O)Nc1ccc(C(=O)N2CCCC(OCOP(=O)(O)OCC[N+](C)(C)C)c3cc(Cl)ccc32)c(C)c1 (stereo not shown)", "88.7 ng/mL"),
]

---

PROTOCOL SUMMARY: Pharmacokinetic study in rats (Test Example 4), intragastric administration
Type: in vivo
STUDY CONDITIONS: Sprague-Dawley, rat, plasma; SD rats, female; Compound 5 PO 12.9 mg/kg; molecule detected Compound 5; mean value
RECORDED ENDPOINT: Tmax (min)

# COMPOUND, UNITS SYMBOL, QUANTITATIVE READOUT
records = [
    ("Cc1ccccc1C(=O)Nc1ccc(C(=O)N2CCCC(OCOP(=O)(O)OCC[N+](C)(C)C)c3cc(Cl)ccc32)c(C)c1 (stereo not shown)", "min", 10),
]

---

PROTOCOL SUMMARY: Pharmacokinetic study in beagles (Test Example 5), intravenous drip and intragastric administration
Type: in vivo
STUDY CONDITIONS: beagle, dog, plasma, iv, Compound 5 0.5 mg/kg i.v. drip over 1 h, molecule detected Compound 5, mean value

# COMPOUND, UNITS SYMBOL, AUC(0-t)
measured = [
    ("Cc1ccccc1C(=O)Nc1ccc(C(=O)N2CCCC(OCOP(=O)(O)OCC[N+](C)(C)C)c3cc(Cl)ccc32)c(C)c1 (stereo not shown) [Compound 5]", "ng·h/mL", 1200),
]

---

PROTOCOL SUMMARY: Pharmacokinetic study in rats (Test Example 3), intravenous injection
Assay type: in vivo
STUDY CONDITIONS: both sexes, Sprague-Dawley, rat, plasma, iv; SD rats; Compound M i.v. 3.91 mg/kg; molecule detected Compound M; mean value
RECORDED ENDPOINT: clearance

# COMPOUND, RESULT
data = [
    ("Cc1ccccc1C(=O)Nc1ccc(C(=O)N2CCCC(OC(=O)[C@@H](N)C(C)C)c3cc(Cl)ccc32)c(C)c1 (stereo partly shown) [Compound M]", "90.8 mL/min/kg"),
]

---

PROTOCOL SUMMARY: Pharmacokinetic study in beagles (Test Example 5), intravenous drip and intragastric administration
Type: in vivo
STUDY CONDITIONS: beagle, dog, plasma, po, Tolvaptan 10 mg/kg p.o., molecule detected Tolvaptan, mean value
RECORDED ENDPOINT: half-life (h)

# COMPOUND, RECORDED ENDPOINT, UNITS SYMBOL, QUANTITATIVE READOUT
rows = [
    ("Cc1ccccc1C(=O)Nc1ccc(C(=O)N2CCCC(O)c3cc(Cl)ccc32)c(C)c1 (stereo not shown) [Tolvaptan, reference compound]", "half-life", "h", 2.61),
]

---

PROTOCOL SUMMARY: Pharmacokinetic study in rats (Test Example 4), intragastric administration
Format: in vivo
STUDY CONDITIONS: Sprague-Dawley, rat, plasma; SD rats, male; Tolvaptan PO 9 mg/kg; molecule detected Tolvaptan; mean value
Method: 1.1.1. Experimental Animals: SD Rats, Male and Female, Weighing about 180-220 g. Housing Environment: SPF. The Animals were Transferred from the Animal Repository (999M-017) of the Laboratory Animal Management Department, Shanghai Institute of Planned Parenthood Research. 1.1.2. Administration Regimen: Tolvaptan and compound 5 were intragastrically administrated. […] Plasma samples were separated and cryopreserved at −70° C., and the compound 5 and tolvaptan levels were determined by LC-MS/MS.

# COMPOUND, UNITS SYMBOL, AUC(0-t)
data = [
    ("Cc1ccccc1C(=O)Nc1ccc(C(=O)N2CCCC(O)c3cc(Cl)ccc32)c(C)c1 (stereo not shown) [Tolvaptan, reference compound]", "ng·h/mL", 55.5),
]

---

PROTOCOL SUMMARY: Pharmacokinetic study in beagles (Test Example 5), intravenous drip and intragastric administration
Format: in vivo
STUDY CONDITIONS: beagle, dog, plasma, iv, Compound 5 2.7 mg/kg i.v. drip over 1 h, molecule detected Compound 5, mean value
Procedure: 1.1.1. Experimental Animals: Beagles, Non-Naïve, Sourced from the Animal Repository of Medicilon: 999M-004. […] The compounds of the intravenous administration group were administered via an intravenous drip over 1 h. […] Plasma samples were separated and cryopreserved at −70° C., and the levels of related compounds in vivo were determined by LC-MS/MS. […]

# COMPOUND, Tmax, h
rows = [
    ("Cc1ccccc1C(=O)Nc1ccc(C(=O)N2CCCC(OCOP(=O)(O)OCC[N+](C)(C)C)c3cc(Cl)ccc32)c(C)c1 (stereo not shown) [Compound 5]", 1),
]

---

PROTOCOL SUMMARY: Pharmacokinetic study in beagles (Test Example 5), intravenous drip and intragastric administration
Assay type: in vivo
STUDY CONDITIONS: beagle, dog, plasma, iv, Compound 5 0.5 mg/kg i.v. drip over 1 h, molecule detected Compound 5, mean value
Method: 1.1.1. Experimental Animals: Beagles, Non-Naïve, Sourced from the Animal Repository of Medicilon: 999M-004. […] The compounds of the intravenous administration group were administered via an intravenous drip over 1 h. […] Plasma samples were separated and cryopreserved at −70° C., and the levels of related compounds in vivo were determined by LC-MS/MS. […]
RECORDED ENDPOINT: Cmax (ng/mL)

# COMPOUND, UNITS SYMBOL, QUANTITATIVE READOUT
measured = [
    ("Cc1ccccc1C(=O)Nc1ccc(C(=O)N2CCCC(OCOP(=O)(O)OCC[N+](C)(C)C)c3cc(Cl)ccc32)c(C)c1 (stereo not shown)", "ng/mL", 889),
]

---

PROTOCOL SUMMARY: Pharmacokinetic study in rats (Test Example 3), intravenous injection
Assay type: in vivo
STUDY CONDITIONS: both sexes, Sprague-Dawley, rat, plasma, iv; SD rats; Compound M i.v. 3.91 mg/kg; molecule detected Compound M; mean value

# MOLECULE, UNITS SYMBOL, AUC(0-inf)
data = [
    ("Cc1ccccc1C(=O)Nc1ccc(C(=O)N2CCCC(OC(=O)[C@@H](N)C(C)C)c3cc(Cl)ccc32)c(C)c1 (stereo partly shown)", "ng·h/mL", 824),
]

---

PROTOCOL SUMMARY: Pharmacokinetic study in dogs (Test Example 1), intragastric administration
Type: in vivo
STUDY CONDITIONS: beagle, dog, plasma; beagles; Compound 5 administered PO 4.3 mg/kg; molecule detected Compound 5; mean value

# COMPOUND, AUC(0-inf), ng·h/mL
measured = [
    ("Cc1ccccc1C(=O)Nc1ccc(C(=O)N2CCCC(OCOP(=O)(O)OCC[N+](C)(C)C)c3cc(Cl)ccc32)c(C)c1 (stereo not shown) [Compound 5]", 162),
]
